EC50 for assorted molecules
Tested on: THP-1 cells
Assay: Measurement of IL-1β production, hTRF protocol (second alternative procedure), THP-1 cells
Format: cell-based, human
Conditions: Homo sapiens, THP-1, IL-1β production, human; read-out: NLRP3 hILIB EC50
Report only the number, with the unit nM understood.

Please review the following examples before continuing.
{"molecule": "COCC(O)Cn1cc2c(N)nc3cc(-c4cc[nH]n4)ccc3c2n1 (stereo not drawn)", "targetUnderTest": "THP-1 cells", "endpointResult": 430}
{"molecule": "Nc1nc2cc(-c3cc[nH]n3)ccc2c2nn(CCC(F)F)cc12", "targetUnderTest": "THP-1 cells", "endpointResult": 300}

Next:
get_value(item= CS(=O)(=O)CCCn1cc2c(n1)c(N)nc1cc(-c3cc[nH]n3)ccc12 , readout=EC50) returns 600

Where these numbers come from: patent US12037344B2
